All figures here come from patent US20250289893A1.

A collection of binders and their measured Fluorescence Intensity Geomean (normalized to background)
target: T1, human CD1b expressed on HEK-293 cells (human, UniProt P29016 18-333; P61769 21-119); assay: flow cytometry, HEK-293 cells, 10 µg/ml antibody
T1 construct: also called HEK - CD1b
Value expressed in fold over background; do not type the unit.

Known results for binders:
Binder: 77A (VR11851) (antibody, V domains shown, also called OX77a; antibody 77a) VH: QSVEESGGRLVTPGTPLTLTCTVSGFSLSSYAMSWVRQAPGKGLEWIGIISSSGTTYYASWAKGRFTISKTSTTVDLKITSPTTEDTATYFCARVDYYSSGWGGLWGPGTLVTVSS VL: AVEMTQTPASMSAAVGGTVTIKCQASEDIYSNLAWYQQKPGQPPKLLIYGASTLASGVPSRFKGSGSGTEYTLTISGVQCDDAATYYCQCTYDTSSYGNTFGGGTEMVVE
Quantitative Readout: 1.1
--
Binder: 110 (VR12112) (antibody, V domains shown, also called OX110; antibody 110) VH: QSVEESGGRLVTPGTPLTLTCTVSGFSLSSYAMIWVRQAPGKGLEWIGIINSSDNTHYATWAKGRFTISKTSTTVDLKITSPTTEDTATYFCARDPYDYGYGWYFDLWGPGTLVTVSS VL: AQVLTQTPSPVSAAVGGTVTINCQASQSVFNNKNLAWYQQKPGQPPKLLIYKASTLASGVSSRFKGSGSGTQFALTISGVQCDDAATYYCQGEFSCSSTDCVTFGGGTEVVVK
Quantitative Readout: 1.1
--
Binder: 116 (VR12117) (antibody, V domains shown, also called OX116) VH: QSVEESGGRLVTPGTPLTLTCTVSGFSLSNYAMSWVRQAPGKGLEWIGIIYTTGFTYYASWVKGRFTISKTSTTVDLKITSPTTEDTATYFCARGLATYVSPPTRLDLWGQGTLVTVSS VL: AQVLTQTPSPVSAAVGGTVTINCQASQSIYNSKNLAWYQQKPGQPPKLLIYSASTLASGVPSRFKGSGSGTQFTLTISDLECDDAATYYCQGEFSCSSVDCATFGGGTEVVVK
Quantitative Readout: 1

I'd like to know its Fluorescence Intensity Geomean (normalized to background). The binder in question is 111 (VR12113) (antibody, V domains shown, also called OX111) VH: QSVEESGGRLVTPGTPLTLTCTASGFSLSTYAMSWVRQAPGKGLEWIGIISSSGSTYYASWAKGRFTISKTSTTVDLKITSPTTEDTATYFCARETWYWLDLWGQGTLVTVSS VL: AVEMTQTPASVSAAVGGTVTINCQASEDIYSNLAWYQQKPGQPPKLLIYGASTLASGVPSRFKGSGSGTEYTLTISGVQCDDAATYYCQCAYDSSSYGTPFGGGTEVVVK
1.1
